FYI, the data here is from patent US20220064302A1.

molecular target: PD-1 expressed on cells (human, UniProt Q15116 25-288); assay: cell-based or functional assay
Sequence (Q15116 25-288 limits assumed): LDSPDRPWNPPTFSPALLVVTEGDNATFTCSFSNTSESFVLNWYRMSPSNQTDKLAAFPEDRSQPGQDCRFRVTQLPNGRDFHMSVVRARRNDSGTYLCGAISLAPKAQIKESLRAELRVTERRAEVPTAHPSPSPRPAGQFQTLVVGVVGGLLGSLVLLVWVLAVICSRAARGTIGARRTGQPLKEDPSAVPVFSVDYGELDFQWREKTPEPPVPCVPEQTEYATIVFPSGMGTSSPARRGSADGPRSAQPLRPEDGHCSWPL
For each entry below, report its PD-1/PD-L1 blockage (IC50, µg/ml) value.
Give bare numbers, in µg/mL.

A16 (antibody, V domains shown, Tested as full-length mAb expressed in CHO cells; also called antibody 16; L16H16) VH: QVQLVESGGGVVQPGRSLTLSCAASGFTFSNYGMYWVRQAPGKGLEWVAVIWYDGSNKYYADSVKGRFTISRDNSKNTLYLQMNSLRAEDTAVYYCAGGGSYSGDYWGQGTLVTVSS VL: DIQMTQSPSSLSASVGDRVTITCRTSQDIRNDLGWYQQKPGKAPKRLIYAVSSLQSGVPSRFSGSGSGTEFTFTISSLQPEDFATYYCLQYNTYPFTFGPGTTVDIK
0.556

As a next step, examine the binder that follows.
Lookup result for A23 (antibody, V domains shown, Tested as full-length mAb expressed in CHO cells; also called antibody 23; L23H23) VH: QVQLVESGGGVVQPGRSLRLSCVASGFTFSNYGMHWVRQAPGKGLEWVAIIWYDGSIKYYADSVKGRFTISRDNSKNTLHLQMNSLRAEDTAVYYCARWGIYFDYWGQGTLVTVSS VL: EIVMTQSPATLSVSPGERATLSCRASQSVSSNLAWYQQKPGQAPRLLIYGASTRATGIPARFSGSGSGTEFTLTISSLQSEDFAVYYCQQYHNWPLTFGGGTKVEIK ; measured PD-1/PD-L1 blockage (IC50, µg/ml): 0.116
